# TGI per record follows
# Tested on: HL-60(TB) leukemia
# test_description: NCI tumour cell line growth inhibition, 48 h
measure_name: TGI (µM)

>>> print(df.to_string())
                                   molecule  measure_name  op  recorded_value
0  COc1ccc(C[C@H](N)C(=O)N2C[C@@H](CO)C[C@@H](n3ccc(=O)[nH]c3=O)C2)cc1           TGI   >             100
1  COc1cc2c3c(n(C)c(=O)c2cc1OC)-c1cc2c(cc1/C3=C\CCNCCCN)OCO2           TGI   =            8.03
2     O=C(CCc1ccc(O)cc1)N/N=C/c1cc(Br)ccc1O           TGI   =            9.66
3         O=[N+]([O-])c1cccc2nccc(NCCCO)c12           TGI   =            36.8
4  CC(O)c1cc(C(=O)N[C@@H](C)Cn2ccc(-c3ccc(C#N)c(Cl)c3)n2)n[nH]1 (some centres undefined)           TGI   =            0.24
5  CC(=O)[O-].O=C([CH-]C(=O)c1ccccc1)c1ccccc1.O=C([CH-]C(=O)c1ccccc1)c1ccccc1.[Sm+3]           TGI   =            7.08
6  COc1ccc(C2=NN=C3C(c4ccccc4)=Nc4ccccc4N3C2)cc1           TGI   =            38.5
7  Cc1coc2c1C(OC(=O)C(C)C)C1(C)C(C)CCC(O)C1C2=O (centres undefined)           TGI   >             100
8  O=C1C(Cl)=C(Nc2cccc(C(F)(F)F)c2)C(=O)N1Cc1ccc(Cl)cc1           TGI   >             100
